cond: in n-propanol, 310.95 K
endpointLabel: solubility (mole fraction)

structuresmilesstring=C[C@@H]1CC[C@@]2(OC1)O[C@H]1C[C@H]3[C@@H]4CC=C5C[C@@H](O)CC[C@]5(C)[C@H]4CC[C@]3(C)[C@H]1[C@@H]2C recordedresult=0.0039

---

cond: in n-propanol, 314.75 K
endpointLabel: solubility (mole fraction)

structuresmilesstring=C[C@@H]1CC[C@@]2(OC1)O[C@H]1C[C@H]3[C@@H]4CC=C5C[C@@H](O)CC[C@]5(C)[C@H]4CC[C@]3(C)[C@H]1[C@@H]2C recordedresult=0.00424

---

cond: in n-propanol, 290.15 K
endpointLabel: solubility (mole fraction)

structuresmilesstring=C[C@@H]1CC[C@@]2(OC1)O[C@H]1C[C@H]3[C@@H]4CC=C5C[C@@H](O)CC[C@]5(C)[C@H]4CC[C@]3(C)[C@H]1[C@@H]2C recordedresult=0.00163

---

cond: in isooctanol, 305.65 K
endpointLabel: solubility (mole fraction)

structuresmilesstring=C[C@@H]1CC[C@@]2(OC1)O[C@H]1C[C@H]3[C@@H]4CC=C5C[C@@H](O)CC[C@]5(C)[C@H]4CC[C@]3(C)[C@H]1[C@@H]2C recordedresult=0.0106

---

cond: in n-butanol, 298.15 K
endpointLabel: solubility (mole fraction)

structuresmilesstring=C[C@@H]1CC[C@@]2(OC1)O[C@H]1C[C@H]3[C@@H]4CC=C5C[C@@H](O)CC[C@]5(C)[C@H]4CC[C@]3(C)[C@H]1[C@@H]2C endpointlabel="solubility (mole fraction)" recordedresult=0.0052

---

cond: in n-butanol, 304.65 K
endpointLabel: solubility (mole fraction)

structuresmilesstring=C[C@@H]1CC[C@@]2(OC1)O[C@H]1C[C@H]3[C@@H]4CC=C5C[C@@H](O)CC[C@]5(C)[C@H]4CC[C@]3(C)[C@H]1[C@@H]2C recordedresult=0.00624

---

cond: in ethanol, 322.35 K
endpointLabel: solubility (mole fraction)

structuresmilesstring=C[C@@H]1CC[C@@]2(OC1)O[C@H]1C[C@H]3[C@@H]4CC=C5C[C@@H](O)CC[C@]5(C)[C@H]4CC[C@]3(C)[C@H]1[C@@H]2C recordedresult=0.00269

---

cond: in n-propanol, 332.65 K
endpointLabel: solubility (mole fraction)

structuresmilesstring=C[C@@H]1CC[C@@]2(OC1)O[C@H]1C[C@H]3[C@@H]4CC=C5C[C@@H](O)CC[C@]5(C)[C@H]4CC[C@]3(C)[C@H]1[C@@H]2C endpointlabel="solubility (mole fraction)" recordedresult=0.0073

---

cond: in n-butanol, 320.65 K
endpointLabel: solubility (mole fraction)

structuresmilesstring=C[C@@H]1CC[C@@]2(OC1)O[C@H]1C[C@H]3[C@@H]4CC=C5C[C@@H](O)CC[C@]5(C)[C@H]4CC[C@]3(C)[C@H]1[C@@H]2C recordedresult=0.00996

---

cond: in n-butanol, 311.55 K
endpointLabel: solubility (mole fraction)

structuresmilesstring=C[C@@H]1CC[C@@]2(OC1)O[C@H]1C[C@H]3[C@@H]4CC=C5C[C@@H](O)CC[C@]5(C)[C@H]4CC[C@]3(C)[C@H]1[C@@H]2C endpointlabel="solubility (mole fraction)" recordedresult=0.00731

---

cond: in tert-butanol, 325.15 K
endpointLabel: solubility (mole fraction)

structuresmilesstring=C[C@@H]1CC[C@@]2(OC1)O[C@H]1C[C@H]3[C@@H]4CC=C5C[C@@H](O)CC[C@]5(C)[C@H]4CC[C@]3(C)[C@H]1[C@@H]2C recordedresult=0.00392
